B1: CPEB3 Ribozyme (parent)
chain: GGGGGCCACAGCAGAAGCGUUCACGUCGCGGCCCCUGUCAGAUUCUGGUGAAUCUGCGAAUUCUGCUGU

Variants of: B1
method notes: self-cleavage, relative activity (ratio to wild type); higher = more cleavage; co-transcriptional
For each record, write down the corresponding self-cleavage.
Give bare numbers.

Examples with answers:
INSERT INTO measurements (sequence_chain, recorded_result) VALUES
  ('GGGGGCCACAGCAGAAGCGUUCAUGUCGCGGCCCCUGUCACAUUCUGGUGAAUCUGCGAAUUCUGCUGU', 0.303),
  ('GGGGGUCACAGCAGAAGCUUUCACGUCGCGGCCCCUGUCAGAUUCUGGUGAAUCUGCGAAUUCUGCUGU', 0.298),
  ('GGGGGCCACAGCAGAAGCGUUCACGUCGCGGCCCCUGUCAGAUUCUGGUUAAUCAGCGAAUUCUGCUGU', 0.882);

Now look at this entry.
Challenge: Supply recorded self-cleavage for GGGGGCCACAGCAGAAACGUUCACGUCGCGGCCCCUGUCAGAUUCUGGUGAAUCUGCGCAUUCUGCUGU here.
Response given: 0.308
